Assay Notes: Inhibition of NS5A in HCV genotype 1b infected in human HuH7 replicon cells assessed as reduction in subgenomic viral RNA replication treated for 2 days followed by compound washout and subsequent compound dosing measured after 1 day by SEAP reporter gene assay
Quantity Name: pEC50
Lab note — pEC50 values are minus log10 of concentrations in M.

Supply pEC50 value. Item: `COC(=O)N[C@H](C(=O)N1CCC[C@H]1c1ncc(-c2ccc(-c3ccc(-c4cnc([C@@H]5CCCN5C(=O)[C@@H](NC(=O)OC)C(C)(C)C)s4)cc3)cc2)s1)C(C)(C)C` 6.33

Give the measured pEC50 for `O=C(CCN1CCCCC1)N[C@@H](C(=O)N1CCC[C@H]1c1ncc(-c2ccc(-c3ccc(-c4cnc([C@@H]5CCCN5C(=O)[C@H](NC(=O)CCN5CCCCC5)c5ccccc5)s4)cc3)cc2)s1)c1ccccc1` 9.05

Answer with reported pEC50 of `O=C(N[C@@H](C(=O)N1CCC[C@H]1c1ncc(-c2ccc(-c3ccc(-c4cnc([C@@H]5CCCN5C(=O)[C@H](NC(=O)c5cccs5)c5ccccc5)s4)cc3)cc2)s1)c1ccccc1)c1cccs1` 8.85

Could you please provide reported pEC50 for `CCN(CC)CCC(=O)N[C@@H](C(=O)N1CCC[C@H]1c1ncc(-c2ccc(-c3ccc(-c4cnc([C@@H]5CCCN5C(=O)[C@H](NC(=O)CCN(CC)CC)c5ccccc5)s4)cc3)cc2)s1)c1ccccc1` ? Thanks! 9.00

Identify the reported pEC50 for the following entry. `O=C(CCn1cccc1)N[C@@H](C(=O)N1CCC[C@H]1c1ncc(-c2ccc(-c3ccc(-c4cnc([C@@H]5CCCN5C(=O)[C@H](NC(=O)CCn5cccc5)c5ccccc5)s4)cc3)cc2)s1)c1ccccc1` 10.77

Others:
Return value of pEC50 for input `O=C(N[C@@H](C(=O)N1CCC[C@H]1c1ncc(-c2ccc(-c3ccc(-c4cnc([C@@H]5CCCN5C(=O)[C@H](NC(=O)c5ccoc5)c5ccccc5)s4)cc3)cc2)s1)c1ccccc1)c1ccoc1` , no commentary. 10.10

Output pEC50 of `O=C(N[C@H](C(=O)N1CCC[C@H]1c1ncc(-c2ccc(-c3ccc(-c4cnc([C@@H]5CCCN5C(=O)[C@H](NC(=O)C5CCCCC5)c5ccccc5)s4)cc3)cc2)s1)c1ccccc1)C1CCCCC1` 7.40

Quick one: give measured pEC50 for `O=C(CCn1cccc1)N[C@H](C(=O)N1CCC[C@H]1c1ncc(-c2ccc(-c3ccc(-c4cnc([C@@H]5CCCN5C(=O)[C@H](NC(=O)CCn5cccc5)c5ccccc5)s4)cc3)cc2)s1)c1ccccc1` 9.64

Dear colleague, please send me the reported pEC50 for `O=C(N[C@@H](C(=O)N1CCC[C@H]1c1ncc(-c2ccc(-c3ccc(-c4cnc([C@@H]5CCCN5C(=O)[C@H](NC(=O)C5CCC5)c5ccccc5)s4)cc3)cc2)s1)c1ccccc1)C1CCC1` when you can. 11.15

Look up and state reported pEC50 for `CCCC(=O)N[C@H](C(=O)N1CCC[C@H]1c1ncc(-c2ccc(-c3ccc(-c4cnc([C@@H]5CCCN5C(=O)[C@H](NC(=O)CCC)c5ccccc5)s4)cc3)cc2)s1)c1ccccc1` 9.11

* * *

The compounds listed here are annotated with their pEC50.
Assay Notes: Inhibition of NS5A in HCV genotype 1b infected in human HuH7 replicon cells assessed as reduction in subgenomic viral RNA replication treated for 2 days followed by compound washout and subsequent compound dosing measured after 1 day by SEAP reporter gene assay
Worth noting: pEC50 values are minus log10 of concentrations stated in mol/L.

Name the recorded pEC50 of the item `O=C(N[C@H](C(=O)N1CCC[C@H]1c1ncc(-c2ccc(-c3ccc(-c4cnc([C@@H]5CCCN5C(=O)[C@H](NC(=O)c5ccccc5)c5ccccc5)s4)cc3)cc2)s1)c1ccccc1)c1ccccc1` in your answer. 6.57

Provide only the value of recorded pEC50 for `O=C(N[C@@H](C(=O)N1CCC[C@H]1c1ncc(-c2ccc(-c3ccc(-c4cnc([C@@H]5CCCN5C(=O)[C@H](NC(=O)c5cccnc5)c5ccccc5)s4)cc3)cc2)s1)c1ccccc1)c1cccnc1` 9.89

# next compound below
Using known records, supply pEC50 for `COC(=O)N[C@H](C(=O)N1CCC[C@H]1c1ncc(-c2ccc(-c3ccc(-c4cnc([C@@H]5CCCN5C(=O)[C@@H](NC(=O)OC)c5ccccc5)s4)cc3)cc2)s1)c1ccccc1` 7.39

* * *

The following molecules are listed with their measured pEC50 values.
Assay Notes: Inhibition of NS5A in HCV genotype 1b infected in human HuH7 replicon cells assessed as reduction in subgenomic viral RNA replication treated for 2 days followed by compound washout and subsequent compound dosing measured after 1 day by SEAP reporter gene assay
Formally, pEC50 is defined as -log10 of the concentration c, with c in mol/L.

Use these answered entries as a reference point.
Look up and state reported pEC50 for `O=C(N[C@H](C(=O)N1CCC[C@H]1c1ncc(-c2ccc(-c3ccc(-c4cnc([C@@H]5CCCN5C(=O)[C@H](NC(=O)c5ccoc5)c5ccccc5)s4)cc3)cc2)s1)c1ccccc1)c1ccoc1` 9.20

Look up and report measured pEC50 for this entry: `CCCC(=O)N[C@@H](C(=O)N1CCC[C@H]1c1ncc(-c2ccc(-c3ccc(-c4cnc([C@@H]5CCCN5C(=O)[C@H](NC(=O)CCC)c5ccccc5)s4)cc3)cc2)s1)c1ccccc1` 10.89

Note down pEC50 recorded for `O=C(N[C@@H](C(=O)N1CCC[C@H]1c1ncc(-c2ccc(-c3ccc(-c4cnc([C@@H]5CCCN5C(=O)[C@H](NC(=O)C5CC5)c5ccccc5)s4)cc3)cc2)s1)c1ccccc1)C1CC1` 11.52

Identify the reported pEC50 for the following entry. `O=C(N[C@H](C(=O)N1CCC[C@H]1c1ncc(-c2ccc(-c3ccc(-c4cnc([C@@H]5CCCN5C(=O)[C@H](NC(=O)C5CCCC5)c5ccccc5)s4)cc3)cc2)s1)c1ccccc1)C1CCCC1` 8.96

Report pEC50 for `CN1CCN(CCC(=O)N[C@@H](C(=O)N2CCC[C@H]2c2ncc(-c3ccc(-c4ccc(-c5cnc([C@@H]6CCCN6C(=O)[C@H](NC(=O)CCN6CCN(C)CC6)c6ccccc6)s5)cc4)cc3)s2)c2ccccc2)CC1` 8.14

---
Name the recorded pEC50 of the molecule listed here: `CC(C)(C)C(=O)N[C@@H](C(=O)N1CCC[C@H]1c1ncc(-c2ccc(-c3ccc(-c4cnc([C@@H]5CCCN5C(=O)[C@H](NC(=O)C(C)(C)C)c5ccccc5)s4)cc3)cc2)s1)c1ccccc1` 8.85

Using known records, supply pEC50 for `O=C(CCN1CCOCC1)N[C@@H](C(=O)N1CCC[C@H]1c1ncc(-c2ccc(-c3ccc(-c4cnc([C@@H]5CCCN5C(=O)[C@H](NC(=O)CCN5CCOCC5)c5ccccc5)s4)cc3)cc2)s1)c1ccccc1` 9.70

Hello, please tell me recorded pEC50 for this one: `CCOC(=O)N[C@H](C(=O)N1CCC[C@H]1c1ncc(-c2ccc(-c3ccc(-c4cnc([C@@H]5CCCN5C(=O)[C@@H](NC(=O)OCC)C(C)C)s4)cc3)cc2)s1)C(C)C` 6.49

Supply reported pEC50 belonging to this molecule: `O=C(CCN1CCCCC1)N[C@H](C(=O)N1CCC[C@H]1c1ncc(-c2ccc(-c3ccc(-c4cnc([C@@H]5CCCN5C(=O)[C@H](NC(=O)CCN5CCCCC5)c5ccccc5)s4)cc3)cc2)s1)c1ccccc1` 7.80

Complete the entry with pEC50 for `CCC(=O)N[C@H](C(=O)N1CCC[C@H]1c1ncc(-c2ccc(-c3ccc(-c4cnc([C@@H]5CCCN5C(=O)[C@H](NC(=O)CC)c5ccccc5)s4)cc3)cc2)s1)c1ccccc1` 9.07

Report pEC50 for `O=C(N[C@H](C(=O)N1CCC[C@H]1c1ncc(-c2ccc(-c3ccc(-c4cnc([C@@H]5CCCN5C(=O)[C@H](NC(=O)c5cccnc5)c5ccccc5)s4)cc3)cc2)s1)c1ccccc1)c1cccnc1` 8.68

State its pEC50 for this molecule: `O=C(CCN1CCCC1)N[C@H](C(=O)N1CCC[C@H]1c1ncc(-c2ccc(-c3ccc(-c4cnc([C@@H]5CCCN5C(=O)[C@H](NC(=O)CCN5CCCC5)c5ccccc5)s4)cc3)cc2)s1)c1ccccc1` 7.64

Provide measured pEC50 value, entry: `CC(C)(C)[C@@H](NC(=O)C1CC1)C(=O)N1CCC[C@H]1c1ncc(-c2ccc(-c3ccc(-c4cnc([C@@H]5CCCN5C(=O)[C@H](NC(=O)C5CC5)C(C)(C)C)s4)cc3)cc2)s1` 5.80

Read off the recorded pEC50 for `O=C(N[C@@H](C(=O)N1CCC[C@H]1c1ncc(-c2ccc(-c3ccc(-c4cnc([C@@H]5CCCN5C(=O)[C@H](NC(=O)c5ccsc5)c5ccccc5)s4)cc3)cc2)s1)c1ccccc1)c1ccsc1` 9.28

Could you please provide reported pEC50 for `C[C@@H](NC(=O)C1CC1)C(=O)N1CCC[C@H]1c1ncc(-c2ccc(-c3ccc(-c4cnc([C@@H]5CCCN5C(=O)[C@@H](C)NC(=O)C5CC5)s4)cc3)cc2)s1` ? Thanks! 6.94

Provide pEC50 value for the following molecule: `CC[C@@H](NC(=O)C1CC1)C(=O)N1CCC[C@H]1c1ncc(-c2ccc(-c3ccc(-c4cnc([C@@H]5CCCN5C(=O)[C@@H](CC)NC(=O)C5CC5)s4)cc3)cc2)s1` 6.36

For the molecule `CCC(=O)N[C@@H](C(=O)N1CCC[C@H]1c1ncc(-c2ccc(-c3ccc(-c4cnc([C@@H]5CCCN5C(=O)[C@H](NC(=O)CC)c5ccccc5)s4)cc3)cc2)s1)c1ccccc1` , give its measured pEC50 value. 10.80

Output pEC50 of `O=C(N[C@@H](C(=O)N1CCC[C@H]1c1ncc(-c2ccc(-c3ccc(-c4cnc([C@@H]5CCCN5C(=O)[C@H](NC(=O)c5ccncc5)c5ccccc5)s4)cc3)cc2)s1)c1ccccc1)c1ccncc1` 10.96

Give the reported value of pEC50 for this record: `O=C(N[C@@H](C(=O)N1CCC[C@H]1c1ncc(-c2ccc(-c3ccc(-c4cnc([C@@H]5CCCN5C(=O)[C@H](NC(=O)c5ccccn5)c5ccccc5)s4)cc3)cc2)s1)c1ccccc1)c1ccccn1` 7.34

Determine from records and report pEC50 for `CCCCC(=O)N[C@@H](C(=O)N1CCC[C@H]1c1ncc(-c2ccc(-c3ccc(-c4cnc([C@@H]5CCCN5C(=O)[C@H](NC(=O)CCCC)c5ccccc5)s4)cc3)cc2)s1)c1ccccc1` 10.51

Hey, just so you know, these numbers are from BindingDB's records for doi:10.1016/j.ejmech.2019.02.016.
